Biological target: T1, human IL-33 (R&D Systems, #3625-IL-010/CF) (human, UniProt O95760 112-270)
T1 construct: Commercial recombinant protein; also called hIL-33; interleukin-33
T1 sequence (looked up): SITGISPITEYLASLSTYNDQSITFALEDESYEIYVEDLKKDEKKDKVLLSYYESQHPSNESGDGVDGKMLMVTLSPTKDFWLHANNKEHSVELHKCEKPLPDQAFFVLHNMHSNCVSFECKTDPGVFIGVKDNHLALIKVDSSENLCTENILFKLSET
Assay: SPR 25C, pH6.0 chase, mAb captured
Listed here are binders together with their documented koff.
Could you give me the number in s⁻¹? Just the number is fine.

Recorded results for 3 binders are shown here.
>>> recordednumber("H4H9662P (antibody, V domains shown, Human IgG4 Fc (H4H)) VH: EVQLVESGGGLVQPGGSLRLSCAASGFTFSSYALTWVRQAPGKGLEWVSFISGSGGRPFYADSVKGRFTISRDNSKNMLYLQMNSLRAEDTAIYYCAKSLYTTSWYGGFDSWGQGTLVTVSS VL: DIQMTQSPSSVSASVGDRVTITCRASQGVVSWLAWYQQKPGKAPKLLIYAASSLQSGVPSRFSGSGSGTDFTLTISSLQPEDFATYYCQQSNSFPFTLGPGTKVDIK")
0.000826
>>> recordednumber("H4H9660P (antibody, human IgG4, V domains shown, Human IgG4 Fc (H4H)) VH: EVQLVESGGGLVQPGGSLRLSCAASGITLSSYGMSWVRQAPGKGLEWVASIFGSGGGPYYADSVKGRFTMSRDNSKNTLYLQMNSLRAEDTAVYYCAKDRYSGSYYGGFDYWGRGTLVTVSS VL: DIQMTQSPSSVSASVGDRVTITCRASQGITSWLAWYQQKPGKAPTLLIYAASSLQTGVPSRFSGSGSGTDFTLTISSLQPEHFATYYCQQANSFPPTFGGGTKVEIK")
0.000708
>>> recordednumber("H4H9675P (antibody, human IgG4, V domains shown, Human IgG4 Fc (H4H)) VH: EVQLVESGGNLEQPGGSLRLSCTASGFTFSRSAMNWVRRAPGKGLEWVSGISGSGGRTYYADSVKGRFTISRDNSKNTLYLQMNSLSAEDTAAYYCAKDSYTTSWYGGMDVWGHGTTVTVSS VL: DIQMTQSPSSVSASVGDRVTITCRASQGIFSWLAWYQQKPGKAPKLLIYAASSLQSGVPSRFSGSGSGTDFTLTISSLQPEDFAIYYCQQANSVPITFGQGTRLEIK")
0.00111

API: the following record is the query input.
# input binder: H4H9666P (antibody, human IgG4, V domains shown, Human IgG4 Fc (H4H)) VH: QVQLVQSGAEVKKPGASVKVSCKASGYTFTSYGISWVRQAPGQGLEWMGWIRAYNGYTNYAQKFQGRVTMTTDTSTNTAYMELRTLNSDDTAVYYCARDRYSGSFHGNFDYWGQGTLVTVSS VL: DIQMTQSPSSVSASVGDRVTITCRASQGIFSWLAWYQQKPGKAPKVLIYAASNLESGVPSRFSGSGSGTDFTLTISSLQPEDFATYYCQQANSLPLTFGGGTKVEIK ; wanted: its koff
0.00134
